READOUT_TYPE: melting point

Examples with their reported melting point follow.
{"columns": ["COMPOUND", "OBSERVED"],
 "data": [
  ["Cc1nnc(SCc2ccccc2)n1N=Cc1ccc(Cl)cc1", "120 to 121 °C"],
  ["CN(C)CCOc1ccccc1C(=O)O", "108 to 109 °C"],
  ["C#CCNC(N)=O", "130 to 131 °C"],
  ["O=C1OC(c2ccccc2)=NC1=Cc1ccc(-c2ccccc2Br)o1", "159 to 160 °C"],
  ["CC(C)(C)c1cc([N+](=O)[O-])c2cc(C(C)(C)C)cc([N+](=O)[O-])c2c1", "198 to 200 °C"]
]}

Task: I would be grateful if you could share the reported melting point for Brc1cnc2[nH]ccc2c1 .
Result: 179 °C

Task: Entry under review: CC(=O)c1ccc(N2C(=O)C=CC2=O)cc1 . Reported melting point?
Result: 156 °C

Task: Bench note: what melting point did COC(=O)[C@H](CSSC[C@@H](C(=O)OC)N1C(=O)[C@@H]2[C@H](C1=O)[C@@H]1C=C[C@H]2C1)N1C(=O)[C@@H]2[C@H](C1=O)[C@@H]1C=C[C@H]2C1 show?
Result: 100 °C

Task: For the compound shown here, Cc1cc(CS)c(CS)cc1C , give the reported melting point.
Result: 64 to 69 °C

Task: Any idea what melting point was measured for CCC(=O)OC1CCC2C3CCC4CC(=O)C(C)CC4(C)C3CCC12C (stereo not drawn) ?
Result: 128 °C

Task: State the recorded melting point for this entry: COC(=O)c1c(C=O)c(C)n(C)c1C
Result: 124 to 127 °C

Task: Can you look up the measured melting point of C=CC(C)(CCC=C(C)C)OC(C)=O (stereo not drawn) for me?
Result: < 25 °C

Task: Given the compound O=C(O)c1c(F)c(Cl)c(F)c(Cl)c1F , what is its reported melting point?
Result: 142 to 143 °C

Task: # lookup: melting point of Cc1cc(CCl)nn1C
Result: 63 to 66 °C

Task: Requested field: melting point. Item: CC(C)(C)C(O)C(=Cc1ccc(Cl)cc1Cl)n1cncn1 (stereo not drawn)
Result: 148 to 149 °C

Task: // lookup melting point for CC(=O)OCOC(=O)C1N2C(=O)C(NC(=O)Cc3ccccc3)C2SC1(C)C (stereo not drawn)
Result: 107 °C

Task: Field request: melting point | item: CCOc1ccc(-c2nnc3n2NC(C=Cc2ccccc2)S3)cc1 (stereo not drawn)
Result: 226 to 228 °C

Task: Find the recorded melting point belonging to Nc1nc2ccc(OC(F)(F)F)cc2s1 and report it.
Result: 119 °C

Task: Record request: melting point value, item CC(Cc1ccccc1)=NNc1ccccc1
Result: 85 °C

Task: Requested field: melting point. Item: Cc1c(Br)cc([N+](=O)[O-])cc1Br
Result: 56 °C

Task: Param item = CCCCCCCOC(=O)CCCCC ; retrieve measured melting point.
Result: -34.4 °C

Task: Which melting point reading was recorded for the compound Cc1nc2ccccc2n1CCCC(=O)O ?
Result: 234 to 238 °C

Task: # input compound: c1ccc(-c2cc[nH]n2)cc1 ; wanted: its melting point
Result: 75 to 77 °C

Task: For CC(NC(=O)CCCCNC(=O)C12CC3CC(CC(C3)C1)C2)[P+]([O-])(Oc1ccccc1)Oc1ccccc1 (stereo not drawn) , what is its reported melting point?
Result: 150 °C

Task: So what's the measured melting point for this one? CCOC(=O)CCc1ccc(O)cc1
Result: 40 to 42 °C
